Molecular target: recombinant human Bcl-2 D103Y protein (Homo sapiens (Human), UniProt P10415, D103Y)
Sequence (P10415 whole entry D103Y): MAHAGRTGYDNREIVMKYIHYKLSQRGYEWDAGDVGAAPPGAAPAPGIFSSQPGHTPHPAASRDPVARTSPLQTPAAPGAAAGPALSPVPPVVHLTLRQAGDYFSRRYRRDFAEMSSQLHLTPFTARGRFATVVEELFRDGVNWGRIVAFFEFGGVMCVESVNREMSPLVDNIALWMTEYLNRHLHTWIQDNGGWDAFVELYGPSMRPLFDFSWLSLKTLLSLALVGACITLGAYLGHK
Experiment: Bcl-2-D103Y Biochemical Assay (TR-FRET)
Type: binding
Details: ratio of IC50
Outcome label depends on Ratio of Bcl-2 D103Y/Bcl-2 WT relative to 2: at/above gives y, below gives n.

COc1cc(CN2CCN(C3CC4(CCN(c5ccc(C(=O)NS(=O)(=O)c6ccc(NC[C@H]7CC[C@](C)(O)CC7)c([N+](=O)[O-])c6)c(Oc6cnc7[nH]ccc7c6)c5)CC4)C3)C(c3ccccc3C(C)C)C2)ccc1F (some centres unmarked) :: n
COc1cc(CN2CCN(C3CC4(CCN(c5ccc(C(=O)NS(=O)(=O)c6ccc(NC[C@H]7CC[C@](C)(O)CC7)c([N+](=O)[O-])c6)c(Oc6cnc7[nH]ccc7c6)c5)CC4)C3)[C@H](c3ccccc3C(C)C)C2)cc2c1OCC2 :: n
CC(C)c1ccccc1[C@@H]1CN(Cc2ccc(F)c(F)c2)CCN1C1CC2(C1)CN(c1ccc(C(=O)NS(=O)(=O)c3ccc(NC[C@H]4CC[C@](C)(O)CC4)c([N+](=O)[O-])c3)c(Oc3cnc4[nH]cc(F)c4c3)c1)C2 :: n
COc1ccc(CN2CCN(C3CC4(C3)CN(c3ccc(C(=O)NS(=O)(=O)c5ccc(NC[C@H]6CC[C@](C)(O)CC6)c([N+](=O)[O-])c5)c(Oc5cnc6[nH]cc(Cl)c6c5)c3)C4)[C@H](c3ccccc3C(C)C)C2)cc1 :: n
COc1nn(C)cc1CN1CCN(C2CC3(CCN(c4ccc(C(=O)NS(=O)(=O)c5ccc(NC[C@H]6CC[C@](C)(O)CC6)c([N+](=O)[O-])c5)c(Oc5cnc6[nH]ccc6c5)c4)CC3)C2)C(c2ccccc2C(C)C)C1 (some centres unmarked) :: y

Is reported Ratio of Bcl-2 D103Y/Bcl-2 WT greater than or equal to 2 here: COc1ccc(CN2CCN(C3CC4(CCN(c5ccc(C(=O)NS(=O)(=O)c6ccc(NC[C@H]7CC[C@](C)(O)CC7)c([N+](=O)[O-])c6)c(Oc6cnc7[nH]ccc7c6)c5)CC4)C3)C(c3ccccc3C(C)C)C2)c(OC)c1 (some centres unmarked)
y

Is reported Ratio of Bcl-2 D103Y/Bcl-2 WT greater than or equal to 2 here: CC(C)c1ccccc1C1CN(Cc2cccc3c2OCCCO3)CCN1C1CC2(CCN(c3ccc(C(=O)NS(=O)(=O)c4ccc(NC[C@H]5CC[C@](C)(O)CC5)c([N+](=O)[O-])c4)c(Oc4cnc5[nH]ccc5c4)c3)CC2)C1 (some centres unmarked)
y

Is reported Ratio of Bcl-2 D103Y/Bcl-2 WT greater than or equal to 2 here: COc1ccc(CN2CCN(C3CC4(CCN(c5ccc(C(=O)NS(=O)(=O)c6ccc(NC[C@H]7CC[C@](C)(O)CC7)c([N+](=O)[O-])c6)c(Oc6cnc7[nH]ccc7c6)c5)CC4)C3)C(c3ccccc3C(C)C)C2)cc1C#N (some centres unmarked)
n

Is reported Ratio of Bcl-2 D103Y/Bcl-2 WT greater than or equal to 2 here: `COc1cc(CN2CCN(C3CC4(C3)CN(c3ccc(C(=O)NS(=O)(=O)c5ccc(NC[C@H]6CC[C@](C)(O)CC6)c([N+](=O)[O-])c5)c(Oc5cnc6[nH]cc(F)c6c5)c3)C4)[C@H](c3ccccc3C(C)C)C2)ccc1N1CC(OC)C1`
y

Is reported Ratio of Bcl-2 D103Y/Bcl-2 WT greater than or equal to 2 here: `COc1cc(CN2CCN(C3CC4(CCN(c5ccc(C(=O)NS(=O)(=O)c6ccc(NC[C@H]7CC[C@](C)(O)CC7)c([N+](=O)[O-])c6)c(Oc6cnc7[nH]ccc7c6)c5)CC4)C3)[C@H](c3ccccc3C(C)C)C2)ccc1C`
n

Is reported Ratio of Bcl-2 D103Y/Bcl-2 WT greater than or equal to 2 here: CC(C)c1ccccc1C1CN(Cc2ccccn2)CCN1C1CC2(CCN(c3ccc(C(=O)NS(=O)(=O)c4ccc(NC[C@H]5CC[C@](C)(O)CC5)c([N+](=O)[O-])c4)c(Oc4cnc5[nH]ccc5c4)c3)CC2)C1 (some centres unmarked)
y

Is reported Ratio of Bcl-2 D103Y/Bcl-2 WT greater than or equal to 2 here: CC(C)c1ccccc1C1CN(CC2CCCCC2)CCN1C1CC2(CCN(c3ccc(C(=O)NS(=O)(=O)c4ccc(NC[C@H]5CC[C@](C)(O)CC5)c([N+](=O)[O-])c4)c(Oc4cnc5[nH]ccc5c4)c3)CC2)C1 (some centres unmarked)
y

Is reported Ratio of Bcl-2 D103Y/Bcl-2 WT greater than or equal to 2 here: CC(C)c1ccccc1C1CN(Cc2ccc(C#N)cc2)CCN1C1CC2(CCN(c3ccc(C(=O)NS(=O)(=O)c4ccc(NC[C@H]5CC[C@](C)(O)CC5)c([N+](=O)[O-])c4)c(Oc4cnc5[nH]ccc5c4)c3)CC2)C1 (some centres unmarked)
y

Is reported Ratio of Bcl-2 D103Y/Bcl-2 WT greater than or equal to 2 here: COc1cccc(CN2CCN(C3CC4(CCN(c5ccc(C(=O)NS(=O)(=O)c6cc7c(c([N+](=O)[O-])c6)N[C@H](C[C@H]6CC[C@H](O)CC6)CO7)c(Oc6cnc7[nH]ccc7c6)c5)CC4)C3)C(c3ccccc3C(C)C)C2)c1 (some centres unmarked)
y

Is reported Ratio of Bcl-2 D103Y/Bcl-2 WT greater than or equal to 2 here: `COc1cc(CN2CCN(C3CC4(CCN(c5ccc(C(=O)NS(=O)(=O)c6ccc(NC[C@H]7CC[C@](C)(O)CC7)c([N+](=O)[O-])c6)c(Oc6cnc7[nH]cc(F)c7c6)c5)CC4)C3)[C@H](c3ccccc3C(C)C)C2)ccc1F`
n

Is reported Ratio of Bcl-2 D103Y/Bcl-2 WT greater than or equal to 2 here: CC(C)c1ccccc1C1CN(CC23CC(C2)C3)CCN1C1CC2(CCN(c3ccc(C(=O)NS(=O)(=O)c4ccc(NC[C@H]5CC[C@](C)(O)CC5)c([N+](=O)[O-])c4)c(Oc4cnc5[nH]ccc5c4)c3)CC2)C1 (some centres unmarked)
y

###

Item-by-item account of Ratio of Bcl-2 D103Y/Bcl-2 WT
Target: recombinant human Bcl-2 D103Y protein (Homo sapiens (Human), UniProt P10415, D103Y)
Assay: Bcl-2-D103Y Biochemical Assay (TR-FRET)
Assay type: binding
Conditions: ratio of IC50
Description: Biological Example: Bcl-2-D103Y Biochemical Assay […]. The TR-FRET signals (ex337 nm, em490 nm/520 nm) were read on BMG PHERAstar FSX instrument. The inhibition percentage of Bcl-2 D103Y interaction with its ligand in presence of increasing concentrations of compounds was calculated based on the ratio of fluorescence at 490 nm to that at 520 nm. The IC50 for each compound was derived from fitting the data to the four-parameter logistic equation by Dotmatics.

COc1cc(CN2CCN(C3CC4(C3)CN(c3ccc(C(=O)NS(=O)(=O)c5ccc(NC[C@H]6CC[C@](C)(O)CC6)c([N+](=O)[O-])c5)c(Oc5cnc6[nH]cc(F)c6c5)c3)C4)[C@H](c3ccccc3C(C)C)C2)cc2c1OC(C)(C)CC2 :: 3.2
COc1ccc(CN2CCN(C3CC4(CCN(c5ccc(C(=O)NS(=O)(=O)c6ccc(NC[C@H]7CC[C@](C)(O)CC7)c([N+](=O)[O-])c6)c(Oc6cnc7[nH]ccc7c6)c5)CC4)C3)C(c3ccccc3C(C)C)C2)cn1 (some centres unmarked) :: 1.6
COc1ccc(CN2CCN(C3CC4(CCN(c5ccc(C(=O)NS(=O)(=O)c6ccc(NC[C@H]7CC[C@](C)(O)CC7)c([N+](=O)[O-])c6)c(Oc6cnc7[nH]ccc7c6)c5)CC4)C3)C(c3ccccc3C(C)C)C2)c2c1OCCO2 (some centres unmarked) :: 1.6
COc1cc(CN2CCN(C3CC4(CCN(c5ccc(C(=O)NS(=O)(=O)c6ccc(NC[C@H]7CC[C@](C)(O)CC7)c([N+](=O)[O-])c6)c(Oc6cnc7[nH]cc(F)c7c6)c5)CC4)C3)[C@H](c3ccccc3C(C)C)C2)ccc1C :: 1.2
COc1cc(CN2CCN(C3CC4(C3)CN(c3ccc(C(=O)NS(=O)(=O)c5ccc(NC[C@H]6CC[C@](C)(O)CC6)c([N+](=O)[O-])c5)c(Oc5cnc6[nH]ccc6c5)c3)C4)[C@H](c3ccccc3C(C)C)C2)ccc1C1CC1 :: 1.9
COc1cc(CN2CCN(C3CC4(C3)CN(c3ccc(C(=O)NS(=O)(=O)c5ccc(NC[C@H]6CC[C@](C)(O)CC6)c([N+](=O)[O-])c5)c(Oc5cnc6[nH]cc(F)c6c5)c3)C4)[C@H](c3ccccc3C(C)C)C2)cc2ccoc12 :: 1.0

Give the reported Ratio of Bcl-2 D103Y/Bcl-2 WT for this compound. CC(C)c1ccccc1C1CN(Cc2cccc3c2OCO3)CCN1C1CC2(CCN(c3ccc(C(=O)NS(=O)(=O)c4ccc(NC[C@H]5CC[C@](C)(O)CC5)c([N+](=O)[O-])c4)c(Oc4cnc5[nH]ccc5c4)c3)CC2)C1 (some centres unmarked)
5.9

Give the reported Ratio of Bcl-2 D103Y/Bcl-2 WT for this compound. `COc1cc(CN2CCN(C3CC4(C3)CN(c3ccc(C(=O)NS(=O)(=O)c5ccc(NC[C@H]6CC[C@](C)(O)CC6)c([N+](=O)[O-])c5)c(Oc5cnc6[nH]ccc6c5)c3)C4)[C@H](c3ccccc3C(C)C)C2)cc2c1OCC2(C)C`
1.1
